# measurement-protocol: Tissue distribution of SHR9146 in mice after oral gavage of 40 mg/kg
# Format: in vivo, ICR mice
# protocol-conditions: male, ICR, mouse, pancreas, po, 40 mg/kg, male, 1 h, 40 mg/kg oral gavage, individual mice; read-out: SHR9146 concentration in Pancreas
test-readout: concentration at 1 h (ng/g)
Write the number in ng/g without appending the unit.

Request: Could you tell me which concentration at 1 h is on file for OCCn1cc(-c2ccc(N3CCC([C@H]4c5c(F)cccc5-c5cncn54)CC3)cc2)cn1 ?
Response: 13800

* * *

# measurement-protocol: Plasma pharmacokinetics of SHR9146 in mice (LC-MS/MS, non-compartmental analysis)
# Type: in vivo, ICR mice
# protocol-conditions: both sexes, ICR, mouse, plasma, po, 20 mg/kg, 20 mg/kg i.g. bid, 7 days (7th-day steady state); all mice (Totol, 3 male + 3 female); plasma
# Procedure: ICR mice with body weight 16–26 g were supplied by Shanghai Lingchang Biotechnology Co., Ltd. (animal breeding license number SCXK (Shanghai) 2013-0018) and housed at Shanghai Institute of Materia Medica, Chinese Academy of Sciences [animal use license number SYXK (Shanghai) 2015-0027]. The mice used in this study were fasted overnight for 12 h but had free access to water. Food was supplied 4 h post-dose. […]
test-readout: Cmax at 7 days (ng/mL)
Write the number in ng/mL without appending the unit.

Request: Could you tell me which Cmax at 7 days is on file for OCCn1cc(-c2ccc(N3CCC([C@H]4c5c(F)cccc5-c5cncn54)CC3)cc2)cn1 ?
Response: 10700

* * *

# measurement-protocol: Tissue distribution of SHR9146 in mice after oral gavage of 40 mg/kg
# Format: in vivo, ICR mice
# protocol-conditions: male, ICR, mouse, small intestine, po, 40 mg/kg, male, 6 h, 40 mg/kg oral gavage, Mean (n=3); read-out: SHR9146 concentration in Small intestine
test-readout: concentration at 6 h
# answer = value followed by unit

Request: Could you tell me which concentration at 6 h is on file for OCCn1cc(-c2ccc(N3CCC([C@H]4c5c(F)cccc5-c5cncn54)CC3)cc2)cn1 [SHR9146] ?
Response: 90 ng/g

* * *

# measurement-protocol: Tissue distribution of SHR9146 in mice after oral gavage of 40 mg/kg
# Type: in vivo, ICR mice
# protocol-conditions: female, ICR, mouse, lung, po, 40 mg/kg, female, 1 h, 40 mg/kg oral gavage, Mean (n=3); read-out: SHR9146 concentration in Lung
test-readout: concentration at 1 h (ng/g)
Write the number in ng/g without appending the unit.

Request: Could you tell me which concentration at 1 h is on file for OCCn1cc(-c2ccc(N3CCC([C@H]4c5c(F)cccc5-c5cncn54)CC3)cc2)cn1 ?
Response: 16300

* * *

# measurement-protocol: Tissue distribution of SHR9146 in mice after oral gavage of 40 mg/kg
# Assay type: in vivo, ICR mice
# protocol-conditions: female, ICR, mouse, plasma, po, 40 mg/kg, female, 3 h, 40 mg/kg oral gavage, Mean (n=3); read-out: SHR9146 concentration in Plasma
test-readout: concentration at 3 h (ng/mL)
Write the number in ng/mL without appending the unit.

Request: Could you tell me which concentration at 3 h is on file for OCCn1cc(-c2ccc(N3CCC([C@H]4c5c(F)cccc5-c5cncn54)CC3)cc2)cn1 ?
Response: 9070
